- test: Displacement of ethidium from poly[d(G-C)]-poly[d(G-C)] DNA (unknown origin) by fluorimetric method

chemical.string	C50 [µM]
C[n+]1ccc(Nc2ccc(C(=O)Nc3ccc(Nc4cc[n+](C)c5ccc(N)cc45)cc3)cc2)cc1.Cc1ccc(S(=O)(=O)[O-])cc1.Cc1ccc(S(=O)(=O)[O-])cc1	1.2
C[n+]1cccc(NC(=O)c2ccc(NC(=O)c3ccc(C(=O)Nc4ccc(C(=O)Nc5ccc[n+](C)c5)c5ccccc45)cc3)cc2)c1.Cc1ccc(S(=O)(=O)[O-])cc1.Cc1ccc(S(=O)(=O)[O-])cc1	2.6
C[n+]1ccc(-c2ccc(-c3ccc(-c4ccc(NC(=O)c5ccc(C(=O)Nc6ccc(-c7ccc(-c8ccc(-c9cc[n+](C)cc9)cc8)cc7)cc6)cc5)cc4)cc3)cc2)cc1.Cc1ccc(S(=O)(=O)[O-])cc1.Cc1ccc(S(=O)(=O)[O-])cc1	1.15
CCC[n+]1ccc(Nc2ccc(NC(=O)c3ccc(Nc4cc[n+](CCC)c5ccccc45)cc3)cc2)cc1.[Br-].[Br-]	3
CCC[n+]1ccccc1-c1ccc(NC(=O)c2ccc(C(=O)Nc3ccc(-c4cccc[n+]4CCC)cc3)cc2)cc1.Cc1ccc(S(=O)(=O)[O-])cc1.Cc1ccc(S(=O)(=O)[O-])cc1	2.9
C[n+]1cccc2ccc(NC(=O)c3ccc(NC(=O)c4ccc(C(=O)Nc5ccc6ccc[n+](C)c6c5)cc4)cc3)cc21.Cc1ccc(S(=O)(=O)[O-])cc1.Cc1ccc(S(=O)(=O)[O-])cc1	0.25
C[n+]1ccc(Nc2ccc(NC(=O)c3ccc(Nc4cc[n+](C)c5c(N)cccc45)cc3)cc2)cc1.[I-].[I-]	1.43
C[n+]1ccc(Nc2ccc(NC(=O)/C=C/c3ccc(C(=O)Nc4ccc(Nc5cc[n+](C)cc5)cc4)cc3)cc2)cc1.Cc1ccc(S(=O)(=O)[O-])cc1.Cc1ccc(S(=O)(=O)[O-])cc1	0.51
C[n+]1ccc(Nc2ccc(S(=O)(=O)Nc3ccc(Nc4c5ccccc5[n+](C)c5cc(N)ccc45)cc3)cc2)cc1.[O-][Cl+3]([O-])([O-])[O-].[O-][Cl+3]([O-])([O-])[O-]	0.12
C[n+]1ccccc1Nc1ccc(NC(=O)c2ccc(C(=O)Nc3ccc(Nc4cccc[n+]4C)cc3)cc2)cc1.Cc1ccc(S(=O)(=O)[O-])cc1.Cc1ccc(S(=O)(=O)[O-])cc1	8.8
C/C(=N\NC(=N)N)c1ccc(NC(=O)c2ccc(C(=O)Nc3ccc(C(=O)Nc4ccc[n+](C)c4)cc3)cc2)cc1.Cc1ccc(S(=O)(=O)O)cc1.Cc1ccc(S(=O)(=O)[O-])cc1	0.52

====

- Tested on: Mus musculus
- test: Toxicity in ip dosed C3H X DBA2 F1 hybrid mouse […] with mouse L1210 cells on day 0 and dosed once daily on days 1 to 5 measured after 50 days
- Type: organism-based
- condition.description: in vivo, 1200 h
In this section we review reported log10(LD10) values for a set of molecules.
endpoint.name: log10(LD10) (log10 of the value in mg/kg)

chemical.string	log10(LD10)
C[n+]1ccc(Nc2ccc(NC(=O)c3ccc(Nc4cc[n+](C)c5ccc(N)cc45)cc3)cc2N)cc1.[I-].[I-]	0.48
C[n+]1ccc(Nc2ccc(NC(=O)Nc3ccc(Nc4cc[n+](C)c5ccc(N)cc45)cc3)cc2)cc1.Cc1ccc(S(=O)(=O)[O-])cc1.Cc1ccc(S(=O)(=O)[O-])cc1	0.78
CCCC[n+]1cccc2cc(NC(=O)c3ccc(C(=O)Nc4ccc5c(ccc[n+]5CCCC)c4)nc3)ccc21.Cc1ccc(S(=O)(=O)[O-])cc1.Cc1ccc(S(=O)(=O)[O-])cc1	2.24
C[n+]1cccc(NC(=O)c2ccc(NC(=O)c3ccc(C(=O)Nc4ccc(C(=O)Nc5ccc[n+](C)c5)cc4)c(Cl)c3)cc2)c1.Cc1ccc(S(=O)(=O)[O-])cc1.Cc1ccc(S(=O)(=O)[O-])cc1	1.48
COCC[n+]1cccc2cc(NC(=O)c3ccc(C(=O)Nc4ccc5c(ccc[n+]5CCOC)c4)cc3)ccc21.Cc1ccc(S(=O)(=O)[O-])cc1.Cc1ccc(S(=O)(=O)[O-])cc1	1.23
CC[n+]1cccc2ccc(NC(=O)c3ccc(-c4ccc(-c5ccc(-c6ccc(C(=O)Nc7ccc8ccc[n+](CC)c8c7)cc6)cc5)cc4)cc3)cc21.Cc1ccc(S(=O)(=O)[O-])cc1.Cc1ccc(S(=O)(=O)[O-])cc1	2.03
C/C(=N\NC(=N)N)c1ccc(C(=O)Nc2ccc(Nc3cc[n+](C)c4ccc(N)cc34)cc2)cc1.Cc1ccc(S(=O)(=O)O)cc1.Cc1ccc(S(=O)(=O)[O-])cc1	1.60
C[n+]1ccc(Nc2ccc(NC(=O)c3ccc(Nc4cc[n+](C)c5cc(Cl)ccc45)cc3)cc2)cc1.[Br-].[Br-]	1.59

====

- Tested on: Mus musculus
- test: Toxicity in ip dosed C3H X DBA2 F1 hybrid mouse […] with mouse L1210 cells on day 0 and dosed once daily on days 1 to 5 measured after 50 days
- Type: organism-based
- condition.description: in vivo, 1200 h

chemical.string	measured.on	LD10
Br.C/C(=N\NC(=N)N)c1ccc(C(=O)Nc2ccc(Nc3cc[n+](C)c4cc(N)ccc34)cc2)cc1.[Br-]	Mus musculus	165 mg/kg
CCC[n+]1ccc(Nc2ccc(NC(=O)c3ccc(Nc4cc[n+](CCC)c5ccccc45)cc3N)cc2N)cc1.[I-].[I-]	Mus musculus	15 mg/kg
C[n+]1cc(-c2ccc(NC(=O)c3ccc(Nc4cc[n+](C)c5ccccc45)cc3)cc2)c(N)nc1N.Cc1ccc(S(=O)(=O)[O-])cc1.Cc1ccc(S(=O)(=O)[O-])cc1	Mus musculus	20 mg/kg
CC(=O)Nc1ccc2c(Nc3ccc(NC(=O)c4ccc(Nc5cc[n+](C)cc5)cc4)cc3)cc[n+](C)c2c1.Cc1ccc(S(=O)(=O)[O-])cc1.Cc1ccc(S(=O)(=O)[O-])cc1	Mus musculus	97 mg/kg
CC[n+]1ccc(Nc2ccc(NC(=O)CCCCCC(=O)Nc3ccc(Nc4cc[n+](CC)cc4)cc3)cc2)cc1.[O-][Cl+3]([O-])([O-])[O-].[O-][Cl+3]([O-])([O-])[O-]	Mus musculus	20 mg/kg
CCC[n+]1ccc(Nc2ccc(NC(=O)c3ccc(Nc4cc[n+](CCC)c5ccccc45)cc3)cc2)cc1.[Br-].[Br-]	Mus musculus	15 mg/kg

====

- test: Lipophilic-hydrophilic balance, Rm of the compound by partition chromatography
- Type: physicochemical
In this section we review reported Rm values for a set of molecules.
endpoint.name: Rm

chemical.string	endpoint.name	measured
C[n+]1ccc(Nc2ccc(NC(=O)c3ccc(-c4ccc(Nc5cc[n+](C)cc5)cc4)cc3)cc2)cc1.[I-].[I-]	Rm	0.06
C[n+]1cccc(NC(=O)c2ccc(NC(=O)c3cccc(C(=O)Nc4ccc(C(=O)Nc5ccc[n+](C)c5)cc4)c3)cc2)c1.Cc1ccc(S(=O)(=O)[O-])cc1.Cc1ccc(S(=O)(=O)[O-])cc1	Rm	0.2
CC[n+]1cccc(NC(=O)c2ccc(NC(=O)c3ccc(C(=O)Nc4ccc(C(=O)Nc5ccc[n+](CC)c5)cc4)c(Cl)c3)cc2)c1.Cc1ccc(S(=O)(=O)[O-])cc1.Cc1ccc(S(=O)(=O)[O-])cc1	Rm	0.42

====

- Tested on: L1210
- test: Antitumor activity against mouse L1210 cells […] in ip dosed C3H X DBA2 F1 hybrid mouse on day 0 and dosed once daily on days 1 to 5 assessed as increase in life span relative to control
- Format: functional
Quick rule: D40 of at least 2 mg/kg means Condition met, below that means Condition not met.

chemical.string	qualitative.label
CCC[n+]1cccc2cc(NC(=O)c3ccc(C(=O)Nc4ccc5c(ccc[n+]5CCC)c4)nc3)ccc21.Cc1ccc(S(=O)(=O)[O-])cc1.Cc1ccc(S(=O)(=O)[O-])cc1	Condition met
C[n+]1ccc(-c2ccc(-c3ccc(-c4ccc(/N=N/Nc5ccc(C(=O)Nc6ccc(-c7ccc(-c8ccc(-c9cc[n+](C)cc9)cc8)cc7)cc6)cc5)cc4)cc3)cc2)cc1.Cc1ccc(S(=O)(=O)[O-])cc1.Cc1ccc(S(=O)(=O)[O-])cc1	Condition not met
C[n+]1ccc(Nc2ccc(C(=O)Nc3ccc(Nc4cc[n+](C)c5cc(N)ccc45)cc3)c(N)c2)cc1.Cc1ccc(S(=O)(=O)[O-])cc1.Cc1ccc(S(=O)(=O)[O-])cc1	Condition not met
CC[n+]1ccc(Nc2ccc(NC(=O)c3ccc(Nc4cc[n+](CC)c5ccccc45)cc3N)cc2)cc1.[I-].[I-]	Condition met
CCC[n+]1cccc(-c2ccc(NC(=O)/C=C/c3ccc(C(=O)Nc4ccc(-c5ccc(-c6ccc(-c7ccc[n+](CCC)c7)cc6)cc5)cc4)cc3)cc2)c1.Cc1ccc(S(=O)(=O)[O-])cc1.Cc1ccc(S(=O)(=O)[O-])cc1	Condition met
C[n+]1ccc(Nc2ccc(/C=C/c3ccc(Nc4cc[n+](C)c5ccc(N)cc45)cc3)cc2)cc1.[Br-].[Br-]	Condition not met
CCC[n+]1ccc(Nc2ccc(NC(=O)c3ccc(Nc4cc[n+](CCC)c5ccccc45)cc3)cc2)cc1.[Br-].[Br-]	Condition met
COc1ccc2c(c1)c(Nc1ccc(C(=O)Nc3ccc(Nc4cc[n+](C)cc4)cc3)cc1)cc[n+]2C.Cc1ccc(S(=O)(=O)[O-])cc1.Cc1ccc(S(=O)(=O)[O-])cc1	Condition not met
CC[n+]1cccc(NC(=O)c2ccc(NC(=O)c3ccc(C(=O)Nc4ccc(C(=O)Nc5ccc[n+](CC)c5)cc4)c(OC)c3)cc2)c1.Cc1ccc(S(=O)(=O)[O-])cc1.Cc1ccc(S(=O)(=O)[O-])cc1	Condition met
C/C(=N\NC(=N)N)c1ccc(C(=O)Nc2ccc(Nc3cc[n+](C)c4ccc(N)cc34)cc2)cc1.Cc1ccc(S(=O)(=O)O)cc1.Cc1ccc(S(=O)(=O)[O-])cc1	Condition met
CC[n+]1ccc(Nc2ccc(NC(=O)c3ccc(Nc4cc[n+](CC)c5ccc(N)cc45)cc3)cc2N)cc1.[I-].[I-]	Condition not met
C[n+]1cccc(NC(=O)c2ccc(NC(=O)c3ccc(C(=O)Nc4ccc(NC(=N)N)cc4)cc3)cc2)c1.I.[I-]	Condition not met
Br.C/C(=N\NC(=N)N)c1ccc(C(=O)Nc2ccc(Nc3cc[n+](C)c4cc(N)ccc34)cc2)cc1.[Br-]	Condition met
CC[n+]1ccc(Nc2ccc(NC(=O)/C=C/c3ccc(C(=O)Nc4ccc(Nc5cc[n+](CC)cc5)cc4)cc3)cc2)cc1.Cc1ccc(S(=O)(=O)[O-])cc1.Cc1ccc(S(=O)(=O)[O-])cc1	Condition not met
CC[n+]1cccc(NC(=O)c2ccc(NC(=O)c3ccc(NC(=O)c4ccc(C(=O)Nc5ccc[n+](CC)c5)cc4)cc3)cc2)c1.Cc1ccc(S(=O)(=O)[O-])cc1.Cc1ccc(S(=O)(=O)[O-])cc1	Condition met
CCC[n+]1cc(-c2ccc(NC(=O)c3ccc(Nc4cc[n+](CCC)c5ccc(N)cc45)cc3N)cc2)c(N)nc1N.Cc1ccc(S(=O)(=O)[O-])cc1.Cc1ccc(S(=O)(=O)[O-])cc1	Condition met
C[n+]1ccc(Nc2ccc(NC(=O)c3ccc(Nc4cc[n+](C)c5ccc(N)cc45)cc3)cc2N)cc1.[I-].[I-]	Condition not met
CC[n+]1ccc(Nc2ccc(NC(=O)c3ccc(Nc4cc[n+](CC)c5ccc(N)cc45)cc3N)cc2)cc1.[I-].[I-]	Condition not met
CCCC[n+]1cccc2cc(NC(=O)COc3ccc(C(=O)Nc4ccc5c(ccc[n+]5CCCC)c4)cc3)ccc21.Cc1ccc(S(=O)(=O)[O-])cc1.Cc1ccc(S(=O)(=O)[O-])cc1	Condition met
CC[n+]1ccc(Nc2ccc(C(=O)Nc3ccc(/C(C)=N/NC(=N)N)cc3)c(N)c2)c2cc(N)ccc21.Cc1ccc(S(=O)(=O)O)cc1.Cc1ccc(S(=O)(=O)[O-])cc1	Condition met
CCC[n+]1cccc(NC(=O)c2ccc(NC(=O)c3ccc(C(=O)Nc4ccc(C(=O)Nc5ccc[n+](CCC)c5)cc4)c(OC)c3)cc2)c1.Cc1ccc(S(=O)(=O)[O-])cc1.Cc1ccc(S(=O)(=O)[O-])cc1	Condition met
CC[n+]1cc(-c2ccc(NC(=O)c3ccc(C(=O)Nc4ccc(-c5c[n+](CC)c(N)nc5N)cc4)cc3)cc2)c(N)nc1N.Cc1ccc(S(=O)(=O)[O-])cc1.Cc1ccc(S(=O)(=O)[O-])cc1	Condition met
C[n+]1cccc(-c2ccc(NC(=O)/C=C/c3ccc(C(=O)Nc4ccc(-c5ccc(-c6ccc(-c7ccc[n+](C)c7)cc6)cc5)cc4)cc3)cc2)c1.Cc1ccc(S(=O)(=O)[O-])cc1.Cc1ccc(S(=O)(=O)[O-])cc1	Condition met
